This listing pairs variants with measured SGCB cell-surface expression functional score (log10).
B1: library; numbered along this chain (parent)
chain: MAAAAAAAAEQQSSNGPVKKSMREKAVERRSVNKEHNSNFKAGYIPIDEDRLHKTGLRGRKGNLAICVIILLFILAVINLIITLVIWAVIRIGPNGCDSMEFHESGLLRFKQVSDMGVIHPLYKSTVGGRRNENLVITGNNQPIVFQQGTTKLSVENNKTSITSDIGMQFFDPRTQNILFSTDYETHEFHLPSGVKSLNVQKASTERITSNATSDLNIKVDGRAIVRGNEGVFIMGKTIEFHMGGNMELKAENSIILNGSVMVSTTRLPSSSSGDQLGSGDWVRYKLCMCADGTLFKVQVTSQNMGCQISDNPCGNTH

# Variants of: B1
# Protocol summary: SGCB cell-surface expression functional score (HA stain, bin4 vs bin1, normalised to synonymous) (log10 ratio); higher = more cell-surface SGCB (functional)
Result type: SGCB cell-surface expression functional score (log10)

N33D: 0.4
P143V: 0.07
G96Q: -2.14
S105V: -0.62
L191D: -1.17
P94Q: 0.21
Q12E: 0
L257H: -0.81
I66V: 0.2
R30I: -0.19
F233C: -0.13
A42G: 0.22
I239C: 0.46
N304T: -0.51
N134Q: -0.54
A251Q: -2.02
T266M: 1.39
K54M: -0.19
E156P: -0.84
F233D: -0.146
G278T: 0.14
G194A: -0.67
G278A: 0.15
K124S: 0.11
P143L: -0.54
K297W: -1.48
L64F: 0.43
E24R: -0.41
T175N: -0.16
G236L: -1.75
T301N: -0.45
T160C: -0.14
M1N: 0.37
E101H: -1.14
T186N: -0.55
V77F: 0.04
F241C: 0.62

Hello, the source for this data is the supplement of paper PMC10266784, in case you need it.
